Data origin, for the record: patent US12091411B2

# measured-target: IRAK4 (Homo sapiens)
# Construct: Degradation of IRAK4 in OCI-LY10 was quantitatively measured using Meso Scale Discovery technology; endogenous in cells; host or cells: OCI-LY10
# Sequence (Q9NWZ3 1-460): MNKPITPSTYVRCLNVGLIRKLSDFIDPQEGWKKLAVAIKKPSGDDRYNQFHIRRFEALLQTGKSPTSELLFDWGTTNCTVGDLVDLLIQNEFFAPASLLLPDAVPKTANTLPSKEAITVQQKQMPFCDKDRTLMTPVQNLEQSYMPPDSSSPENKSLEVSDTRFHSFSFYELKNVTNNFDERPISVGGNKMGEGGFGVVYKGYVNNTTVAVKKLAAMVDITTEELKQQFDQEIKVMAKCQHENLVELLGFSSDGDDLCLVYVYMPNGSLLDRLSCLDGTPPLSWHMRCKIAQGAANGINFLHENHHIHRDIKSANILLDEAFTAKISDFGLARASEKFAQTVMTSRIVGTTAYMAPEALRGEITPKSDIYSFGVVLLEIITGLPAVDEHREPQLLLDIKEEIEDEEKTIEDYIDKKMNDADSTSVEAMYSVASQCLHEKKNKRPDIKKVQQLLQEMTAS
# protocol-description: IRAK4 MSD Degradation in OCI-LY10
# Format: cell-based
# conditions-used: OCI-LY10 cells, 4 hrs incubation, MSD; read-out: IRAK4 degradation in OCI-LY10 at 4 hrs: DC50
Recorded DC50 for the following compounds

// solved cases for DC50 follow
- compound: "Cn1c(=O)n(C2CCC(=O)NC2=O)c2cccc(N3CC(OC4CCN(C[C@H]5CC[C@H](n6cc(NC(=O)c7cnn8ccc(N9C[C@H]%10C[C@@H]9CO%10)nc78)c(C(F)F)n6)CC5)CC4)C3)c21 (some centres unmarked) [I-601]"
  DC50: "> 200 nM"
- compound: "COc1nc(NC(=O)c2cccc(C(F)(F)F)n2)cc2cn([C@H]3CC[C@H](CN4CCC(c5cccc6c5n(C)c(=O)n6C5CCC(=O)NC5=O)C(F)(F)C4)CC3)nc12 (some centres unmarked) [I-769]"
  DC50: "> 200 nM"
- compound: "Cc1cc2nn([C@H]3CC[C@H](CN4CCC(c5cccc6c5n(C)c(=O)n6C5CCC(=O)NC5=O)C(F)C4)CC3)cc2cc1NC(=O)c1cccc(C(F)(F)F)n1 (some centres unmarked) [I-550]"
  DC50: "> 200 nM"
- compound: "CN1CCC(c2ccn3ncc(C(=O)Nc4cn([C@H]5CC[C@H](CN6CCN(CC#Cc7cccc8c7n(C)c(=O)n8C7CCC(=O)NC7=O)CC6)CC5)nc4C(F)F)c3n2)C(F)(F)C1 (some centres unmarked) [I-413]"
  DC50: "> 200 nM"
- compound: "Cn1c(=O)n(C2CCC(=O)NC2=O)c2ccc(F)c(N3CCN(C[C@H]4CC[C@H](n5cc6cc(NC(=O)c7cccc(C#N)n7)ccc6n5)CC4)CC3)c21 (some centres unmarked) [I-686]"
  DC50: "> 200 nM"

[Q] Request body: readout DC50, system IRAK4 (Homo sapiens), query O=C1CCN(c2cncc3c(C#CCO[C@@H]4CCN(C[C@H]5C[C@H](n6cc(NC(=O)c7cnn8ccc(N9C[C@H]%10C[C@@H]9CO%10)nc78)c(C(F)F)n6)C5)C[C@@H]4F)cccc23)C(=O)N1 [I-52] . Return the value.
[A] < 10 nM

[Q] Request body: readout DC50, system IRAK4 (Homo sapiens), query Cc1cccc(C(=O)Nc2cc3cn([C@H]4CC[C@H](CN5CCN(c6c(F)ccc7c6n(C)c(=O)n7C6CCC(=O)NC6=O)CC5)CC4)nc3cn2)n1 (some centres unmarked) [I-695] . Return the value.
[A] > 200 nM
